Taken from ChEMBL document CHEMBL1123537.

- Tested on: Epidermoid carcinoma cell line
- Procedure text: Compound was tested for its antiviral activity against Herpes Simplex Virus-1(HF strain) in human epidermoid carcinoma cells (H.Ep.-2) measured as virus rating (VR).
- Format: functional
Measured property: VR

>>> recorded_value("Nc1ccn([C@@H]2C[C@H](CO)[C@@H](O)[C@@H]2O)c(=O)n1")
0.6
>>> recorded_value("Nc1ccn(C2CC(O)C(CO)C2)c(=O)n1 (configuration not stated)")
0
>>> recorded_value("Nc1ccn([C@@H]2C[C@H](CO)[C@@H](O)[C@H]2O)c(=O)n1")
0.8
>>> recorded_value("Nc1ccn(C2CC(CO)CC2O)c(=O)n1 (configuration not stated)")
0
>>> recorded_value("Nc1nc(=O)n([C@@H]2C[C@H](CO)[C@@H](O)[C@@H]2O)cc1I")
0
>>> recorded_value("Nc1nc(=O)n(C2CC(O)C(CO)C2)cc1I (configuration not stated)")
0
>>> recorded_value("Nc1nc(=O)n(C2CC(O)C(CO)C2)cc1Br (configuration not stated)")
0
